Test system: MDA-MB-231
Experiment Notes: NCI tumour cell line growth inhibition, 48 h
Calls of active or inactive are those of the source. No stated cut-off is given here; in the data, active = GI50 up to about 1.1 µM and inactive = higher.
Please go through the items and note down their GI50.

Summary: CCN(CC)C(=S)Oc1cc2oc(=O)cc(C)c2cc1Cl , MDA-MB-231, GI50 = > 100 µM (inactive)

Summary: N=C(N)CCNC(=O)C1CCC(N)=N1 (stereo not given) , MDA-MB-231, GI50 = 14.7 µM (inactive)

Summary: CC(=O)O[C@H]1C(=O)[C@@]2(C)[C@H]([C@H](OC(=O)c3ccco3)[C@]3(O)C[C@H](OC(=O)[C@H](O)[C@@H](NC(=O)c4ccccc4)c4ccccc4)C(C)=C1C3(C)C)[C@]1(OC(C)=O)CO[C@@H]1C[C@@H]2O , MDA-MB-231, GI50 = 4.58 µM (inactive)

Summary: COc1ccc2c(c1)OC1c3ccccc3OCC21 (stereo not given) , MDA-MB-231, GI50 = > 100 µM (inactive)

Summary: O=[N+]([O-])C(/C=C(\Cl)[N+](=O)[O-])=C1Nc2ccccc2N1 , MDA-MB-231, GI50 = 36.7 µM (inactive)

Attribution: ChEMBL document CHEMBL1201862
